Origin of values: ChEMBL document CHEMBL3751718

Tested on: MG-22A
Assay: Cytotoxicity against mouse MG-22A cells assessed as cell viability at 6.25 to 50 ug/ml after 72 hrs by MTT assay
Assay type: functional
Conditions: read-out: LC50 (the source's name)
readout: CC50 (µM)

[[record]]
item_smiles = "CCCCCCCCCCCOCCc1sc[n+](C)c1C.[I-]"
observed_value = 1.82

[[record]]
item_smiles = "CCCCCCCCCC[n+]1csc(CCOCCCCCCC)c1C.[I-]"
observed_value = 1.96

[[record]]
item_smiles = "CCCCCCCOCCc1sc[n+](C)c1C.[I-]"
observed_value = 18.2

[[record]]
item_smiles = "CCCCCCCCCCOCCc1scnc1C"
observed_value = 45.9

[[record]]
item_smiles = "CCCCCCCCCCOCCc1sc[n+](C)c1C.[I-]"
observed_value = 1.17

[[record]]
item_smiles = "CCCCCCCOCCc1scnc1C"
observed_value = 49.7

[[record]]
item_smiles = "CCCCCCCCCCCOCCc1scnc1C"
observed_value = 53.8

